# ASSAY REMARKS: Cytotoxicity against c-Met over-expressed human H460 cells assessed as cell growth inhibition after 72 hrs by MTT assay
# CONDITION SUMMARY: NCI-H460, 72 h
MEASURE NAME: log10 IC50 (log10 of the value in nM)
Parameter value (number): base-10 log of IC50 in nM.

COc1cc2c(Oc3ccc(NC(=O)c4nn(-c5ccccc5F)c(=O)n4C)cc3F)ccnc2cc1OCCCN1CCN(C)CC1 | 2.15
COc1cc2c(Oc3ccc(NC(=O)c4nn(-c5ccc(F)cc5)c(=O)n4C)cc3F)ccnc2cc1OCCCN1CCN(C)CC1 | 2.57
COc1cc2c(Oc3ccc(NC(=O)c4nn(-c5c(C)cccc5C)c(=O)n4C)cc3F)ccnc2cc1OCCCN1CCCCC1 | 3.48
COc1cc2c(Oc3ccc(NC(=O)c4nn(-c5ccccc5F)c(=O)n4C)cc3F)ccnc2cc1OCCCN1CCC(C)CC1 | 2.40
COc1cc2c(Oc3ccc(NC(=O)c4nn(-c5ccccc5)c(=O)n4C)cc3F)ccnc2cc1OCCCN1CCCC1 | 3.11

Ask: # input compound: COc1cc2c(Oc3ccc(NC(=O)c4nn(-c5cccc(F)c5)c(=O)n4C)cc3F)ccnc2cc1OCCCN1CCC(C)CC1 ; wanted: its log10 IC50
Result: 2.46

Ask: I'd like to know its log10 IC50. The compound in question is COc1cc2c(Oc3ccc(NC(=O)c4nn(-c5ccccc5OC(F)(F)F)c(=O)n4C4CC4)cc3F)ccnc2cc1OCCCN1CCN(C)CC1
Result: 2.26

Ask: Which log10 IC50 value belongs to COc1cc2c(Oc3ccc(NC(=O)c4nn(-c5ccc(Cl)cc5Cl)c(=O)n4C)cc3F)ccnc2cc1OCCCN1CCC(C)CC1 ?
Result: 2.65

Ask: Given the entry COc1cc2c(Oc3ccc(NC(=O)c4nn(-c5ccccc5Cl)c(=O)n4C)cc3F)ccnc2cc1OCCCN1CCCCC1 , report its measured log10 IC50.
Result: 2.48

Ask: Request the reported log10 IC50 associated with COc1cc2c(Oc3ccc(NC(=O)c4nn(-c5ccccc5OC(F)(F)F)c(=O)n4C)cc3F)ccnc2cc1OCCCN1CCCCC1
Result: 2.46

Ask: Please give the measured log10 IC50 for this compound: COc1cc2c(Oc3ccc(NC(=O)c4nn(-c5ccccc5Cl)c(=O)n4C)cc3F)ccnc2cc1OCCCN1CCC(C)CC1
Result: 2.30

Ask: Query: log10 IC50; subject: COc1cc2c(Oc3ccc(NC(=O)c4nn(-c5ccc(Cl)cc5Cl)c(=O)n4C)cc3F)ccnc2cc1OCCCN1CCCCC1
Result: 2.58
